target: GRM8 (Homo sapiens, UniProt O00222); construct: purchased Promega (in-house HiBiT-GPCR construct library, NanoBRET); test: NanoBRET screen HiBiT-GRM8 in HEK293; type: binding; conditions: GRM8; tracer 0.1μM
Sequence (O00222 34-908): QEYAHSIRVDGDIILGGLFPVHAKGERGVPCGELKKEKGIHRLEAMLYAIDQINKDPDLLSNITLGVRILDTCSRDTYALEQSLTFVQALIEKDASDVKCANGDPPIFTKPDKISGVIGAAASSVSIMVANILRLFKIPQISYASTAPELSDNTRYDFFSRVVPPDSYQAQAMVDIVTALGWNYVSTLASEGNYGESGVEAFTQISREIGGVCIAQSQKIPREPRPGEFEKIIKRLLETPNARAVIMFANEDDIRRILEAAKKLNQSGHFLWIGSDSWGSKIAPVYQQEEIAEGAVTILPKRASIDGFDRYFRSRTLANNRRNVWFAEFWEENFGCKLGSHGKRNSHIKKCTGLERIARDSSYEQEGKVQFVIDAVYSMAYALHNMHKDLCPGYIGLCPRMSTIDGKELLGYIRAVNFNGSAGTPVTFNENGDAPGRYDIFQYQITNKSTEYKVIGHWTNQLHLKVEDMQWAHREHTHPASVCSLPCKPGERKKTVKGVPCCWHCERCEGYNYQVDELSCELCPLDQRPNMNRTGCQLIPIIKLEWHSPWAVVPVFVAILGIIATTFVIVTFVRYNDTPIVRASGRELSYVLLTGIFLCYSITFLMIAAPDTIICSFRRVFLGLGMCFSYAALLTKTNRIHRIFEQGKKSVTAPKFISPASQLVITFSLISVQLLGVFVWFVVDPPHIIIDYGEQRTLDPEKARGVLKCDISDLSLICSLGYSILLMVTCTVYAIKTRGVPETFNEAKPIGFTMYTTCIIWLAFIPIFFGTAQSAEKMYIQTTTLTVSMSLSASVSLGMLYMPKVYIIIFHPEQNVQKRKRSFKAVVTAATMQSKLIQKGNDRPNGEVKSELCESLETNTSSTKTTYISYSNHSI
assayReadout: NanoBRET Fold Response

* O=C(CCc1ccc2n1[B-](F)(F)[N+]1=C(c3ccc[nH]3)C=CC1=C2)NCc1ccc(C(=O)NCCOCCC(=O)N[C@@H]2CC[C@@]3(O)[C@H]4Cc5ccc(O)c6c5[C@@]3(CCN4CC3CC3)[C@H]2O6)cc1 [Naltrexone-3-NB590] | 1.07
* COc1ccccc1N1CCN(CCCCN2C(=O)c3ccc(CNC(=O)CCOCCOCCOCCOCCNC(=O)CCc4ccc5n4[B-](F)(F)[N+]4=C(c6ccc[nH]6)C=CC4=C5)cc3C2=O)CC1 [NAN-190-2-NB590] | 1.02
* CC(C)N(CC[C@H](c1ccccc1)c1cc(CCNC(=O)c2ccc(CNC(=O)CCc3ccc4n3[B-](F)(F)[N+]3=C(c5ccc[nH]5)C=CC3=C4)cc2)ccc1O)C(C)C [Tolterodine-BZ-NB590] | 1.02
* O=C(CCc1ccc2n1[B-](F)(F)[N+]1=C(c3ccc[nH]3)C=CC1=C2)NCCOCCOCCNC(=O)OCCOCCN1CCN(C2=Nc3ccccc3Sc3ccccc32)CC1 [Quetiapine-a-2-NB590] | 0.98
* Cc1nc2n(c(=O)c1CCN1CCC(c3noc4cc(F)ccc34)CC1)CCCC2OC(=O)NCCOCCOCCOCCOCCNC(=O)CCc1ccc2n1[B-](F)(F)[N+]1=C(c3ccc[nH]3)C=CC1=C2 (centres unmarked) [Risperidone-2-NB590] | 1.00

Cited source: paper PMC8151276
